run-description: Toxicity, oral doses in mice (ALD50, ATD50)
Assay type: in vivo
particulars: in vivo; mouse, oral, 5 mg/kg to 2000 mg/kg, 2 mice each dose; read-out: ALD50 (approximate lethal dose for half the animals)
Experimental: ^(1) Various oral doses of from 5 mg/kg to 2000 mg/kg are given to 2 mice each; ALD50 is the approximate lethal dose for half the animals ATD50 is the approximate lowest dose where signs of physiologic or neurologic deficit appear.
Quick reference: LD50 of the listed items.

COc1ccc(C(=O)Nc2ccccc2CCC2CCCCN2C)cc1 (centres unmarked) [Encainide] | 50 to 100 mg/kg

Now let's try a different one.
So what's the measured LD50 for this one? COc1ccc(C(=O)Nc2ccccc2CCC2CCCC[N+]2(C)[O-])cc1 (racemic) [Encainide N-Oxide]
500 to 1000 mg/kg

====

run-description: Water solubility
Type: physicochemical
particulars: water
readout-type: solubility (mg/mL)
Numbers only; they are read as mg/mL.

Need solubility of COc1ccc(C(=O)Nc2ccccc2CCC2CCCC[N+]2(C)[O-])cc1 (racemic) [Encainide N-Oxide] , thanks.
833

Ref: patent US4306069A
